- system: T1, Rat serum albumin (RSA) (rat, UniProt P02770 25-608)
- T1 construct: Bought protein (Sigma); also called rat albumin
- T1 sequence (P02770 25-608): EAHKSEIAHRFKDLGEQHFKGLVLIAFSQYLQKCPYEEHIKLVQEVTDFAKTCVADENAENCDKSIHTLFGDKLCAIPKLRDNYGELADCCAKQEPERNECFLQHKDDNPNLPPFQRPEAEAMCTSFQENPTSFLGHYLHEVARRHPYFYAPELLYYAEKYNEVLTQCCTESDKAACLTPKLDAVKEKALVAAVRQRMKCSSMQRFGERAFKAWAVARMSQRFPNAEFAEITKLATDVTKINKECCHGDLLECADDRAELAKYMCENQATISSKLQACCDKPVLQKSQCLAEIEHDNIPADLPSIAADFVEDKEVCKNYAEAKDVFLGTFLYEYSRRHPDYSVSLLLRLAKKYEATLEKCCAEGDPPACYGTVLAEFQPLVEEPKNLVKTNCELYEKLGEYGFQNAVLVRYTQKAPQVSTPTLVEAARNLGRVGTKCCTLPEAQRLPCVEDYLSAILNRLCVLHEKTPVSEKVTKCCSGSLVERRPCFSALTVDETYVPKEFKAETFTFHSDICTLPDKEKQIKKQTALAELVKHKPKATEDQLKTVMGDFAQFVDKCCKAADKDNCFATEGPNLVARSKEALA
- method description: ELISA on coated rat albumin, anti-human Fc HRP, A650, one site-total binding fit
assay metric: Bmax (A650)
Form entry: value (A650) — number only.

Would you please look over these solved cases?
binder | assay metric | units label | numeric readout
4A01v6 (Fc fusion, not shown: a dimerising Fc or GST; small tags and cut ends, also called Hz4A01v6) VHH: EVQLVESGGGEVQPGGSLRLSCAASGFAFSTSGMVWVRQAPGKGLEWVSTISDSGRIIRYAESVKGRFTISRDNAKNTLYLQMNSLRAEDTAVYYCATYRAGSRIGSYEDYYRGQGTLVTVKP | Bmax | A650 | 1.02
4A01v8 (Fc fusion, not shown: a dimerising Fc or GST; small tags and cut ends, also called Hz4A01v8) VHH: EVQLVESGGGEVQPGGSLRLSCAASGFAFSTSGMVWVRQAPGKGLEWVSTISDNARIIRYAESVKGRFTISRDNAKNTLYLQMNSLRAEDTAVYYCATYRAGSRIGSYEDYYRGQGTLVTVKP | Bmax | A650 | 1.01
4A01v4 (Fc fusion, not shown: a dimerising Fc or GST; small tags and cut ends, also called Hz4A01v4) VHH: EVQLVESGGGEVQPGGSLRLSCAASGFAFSTSGMVWVRQAPGKGLEWVSTISDESRIIRYAESVKGRFTISRDNAKNTLYLQMNSLRAEDTAVYYCATYRAGSRIGSYEDYYRGQGTLVTVKP | Bmax | A650 | 0.972

Now consider a different binder.
Reported Bmax for 4A01v5 (Fc fusion, not shown: a dimerising Fc or GST; small tags and cut ends, also called Hz4A01v5) VHH: EVQLVESGGGEVQPGGSLRLSCAASGFAFSTSGMVWVRQAPGKGLEWVSTISDEGRIIRYAESVKGRFTISRDNAKNTLYLQMNSLRAEDTAVYYCATYRAGSRIGSYEDYYRGQGTLVTVKP was 1
